Target: Alpha 2A adrenergic receptor (Homo sapiens)
Construct: expressed in transfected cells
Sequence (P08913 1-465): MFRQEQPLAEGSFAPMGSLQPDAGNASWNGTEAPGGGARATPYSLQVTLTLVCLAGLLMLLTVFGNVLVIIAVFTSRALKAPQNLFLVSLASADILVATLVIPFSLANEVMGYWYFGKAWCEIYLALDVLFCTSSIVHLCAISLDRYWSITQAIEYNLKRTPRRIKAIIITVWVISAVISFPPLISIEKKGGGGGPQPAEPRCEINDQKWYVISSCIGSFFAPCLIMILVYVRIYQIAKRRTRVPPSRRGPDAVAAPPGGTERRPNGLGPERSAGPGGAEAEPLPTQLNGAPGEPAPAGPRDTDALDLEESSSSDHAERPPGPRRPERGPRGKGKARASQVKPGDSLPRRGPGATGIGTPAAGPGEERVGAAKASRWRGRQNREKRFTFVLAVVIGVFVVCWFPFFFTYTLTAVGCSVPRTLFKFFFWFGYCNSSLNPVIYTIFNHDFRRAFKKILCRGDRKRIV
Assay: RSAT (Receptor Selection and Amplification Technology) assay, alpha 2A
Assay type: cell-based
Conditions: relative efficacy compared to a standard full agonist
MEASURED PROPERTY: Intrinsic Activity (efficacy) Alpha 2A
Please respond with just the number, no unit label.

Known Intrinsic Activity (efficacy) Alpha 2A results, listed for orientation:
Ask: Quick one: Intrinsic Activity (efficacy) Alpha 2A of `c1cc2cc(N=C3NCCN3)cnc2[nH]1` ?
Result: 0.89

Ask: Quick one: Intrinsic Activity (efficacy) Alpha 2A of `Clc1c(N=C2NCCN2)cnc2[nH]ccc12` ?
Result: 0.73

Ask: Quick one: Intrinsic Activity (efficacy) Alpha 2A of `Brc1c(N=C2NCCN2)cnc2[nH]ccc12` ?
Result: 0.16

Here is another compound to look at.
Ask: Quick one: Intrinsic Activity (efficacy) Alpha 2A of `Cc1c(N=C2NCCN2)cnc2[nH]ccc12` ?
Result: 0.85
